experiment: in vivo; details: mouse, ip, 1 mg/kg
recorded_endpoint: concentration at 24 h

Qu. What value of concentration at 24 h has been recorded for this entry: C[C@H]1O[C@@H](O[C@@H]2[C@@H](O)C[C@H](O[C@@H]3[C@@H](O)C[C@@H](O[C@H]4CC[C@@]5(C)[C@H](CC[C@@H]6[C@@H]5C[C@@H](O)[C@]5(C)C(C7=CC(=O)OC7)CC[C@]65O)C4)O[C@@H]3C)O[C@@H]2C)C[C@H](O)[C@H]1O (stereo partly shown) [digoxin]
Ans. 0.5 to 2 ng/mL

----------
system: IL-1β production in murine peritoneal macrophages (PECs); experiment: IL-1β secretion (ELISA) by primed, ATP-pulsed peritoneal macrophages (PECs); format: cell-based, mouse; conditions: LPS-primed PECs pulsed with ATP
recorded_endpoint: IL-1β production

>>> observed("Nc1nc(NCCc2ccc(O)cc2)nc2nc(-c3ccco3)nn12")
"block"

----------
Assay: in vivo
Conditions: mouse, 1 mg/kg
Procedure: FIG. 19 is a bar graph illustrating plasma digoxin levels in mice. Saline or digoxin were daily injected in mice at a dose of 1.0 mg/kg. Plasma digoxin levels measured 24 hours after the final injection were at or below the therapeutic range for humans (0.8-2 ng/mL). C57BL/6J male mice were placed on a 45% high-fat diet (HFD) for […] with and without digoxin (ip 1 mg/kg twice a week). Digoxin, 1 mg/kg ip daily, in mice results in the therapeutic serum levels achieved in humans (0.5-2 ng/ml). […]
recorded_endpoint: concentration at 24 h

Qu. What value of concentration at 24 h has been recorded for this entry: C[C@H]1O[C@@H](O[C@@H]2[C@@H](O)C[C@H](O[C@@H]3[C@@H](O)C[C@@H](O[C@H]4CC[C@@]5(C)[C@H](CC[C@@H]6[C@@H]5C[C@@H](O)[C@]5(C)C(C7=CC(=O)OC7)CC[C@]65O)C4)O[C@@H]3C)O[C@@H]2C)C[C@H](O)[C@H]1O (stereo partly shown)
Ans. 0.8 to 2 ng/mL

This collection of values is drawn from patent US10624917B2.
